# tested on: melanocortin-5 receptor (human, UniProt P33032 1-325)
# Sequence (P33032 whole entry): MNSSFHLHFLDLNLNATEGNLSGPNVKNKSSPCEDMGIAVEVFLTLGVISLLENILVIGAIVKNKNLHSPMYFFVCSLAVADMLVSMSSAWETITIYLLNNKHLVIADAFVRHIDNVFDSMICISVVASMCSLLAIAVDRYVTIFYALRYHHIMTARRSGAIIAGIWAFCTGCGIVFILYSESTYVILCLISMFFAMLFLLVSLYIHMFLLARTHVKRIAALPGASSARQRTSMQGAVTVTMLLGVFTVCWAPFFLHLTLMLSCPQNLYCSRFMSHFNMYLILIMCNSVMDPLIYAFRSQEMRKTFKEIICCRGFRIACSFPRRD
# measurement description: cell-based or functional assay
Bridge positions count the residues as written; N and C are the ends. Square brackets hold non-standard residues; d marks the D form. dPhe(4-F) = N[C@H](Cc1ccc(F)cc1)C(=O)O; Pen = CC(C)(S)[C@H](N)C(=O)O; hCys = N[C@@H](CCS)C(=O)O
# label = yes (1) if Ratios of EC50 values MC 5/4 (MC5R against MC4R) < 200 ratio else no (0)

Example results:
binder="Ac-RC[dA]P[dF]RWC-NH2 (disulfide 2-8; SMILES CC(=O)N[C@@H](CCCNC(=N)N)C(=O)N[C@H]1CSSC[C@@H](C(N)=O)NC(=O)[C@H](Cc2c[nH]c3ccccc23)NC(=O)[C@H](CCCNC(=N)N)NC(=O)[C@@H](Cc2ccccc2)NC(=O)[C@@H]2CCCN2C(=O)[C@@H](C)NC1=O) [Ac-Arg-cyclo[Cys-D-Ala-Pro-D-Phe-Arg-Trp-Cys]-NH2]" class_assignment="yes (1)"
binder="Ac-R[hCys]A[dF]RWC-NH2 (disulfide 2-7; SMILES CC(=O)N[C@@H](CCCNC(=N)N)C(=O)N[C@H]1CCSSC[C@@H](C(N)=O)NC(=O)[C@H](Cc2c[nH]c3ccccc23)NC(=O)[C@H](CCCNC(=N)N)NC(=O)[C@@H](Cc2ccccc2)NC(=O)[C@H](C)NC1=O) [Ac-Arg-cyclo[hCys-Ala-D-Phe-Arg-Trp-Cys]-NH2]" class_assignment="yes (1)"
binder="Ac-RC[dI]H[dF]RWC-NH2 (disulfide 2-8) [Ac-Arg-cyclo[Cys-D-Ile-His-D-Phe-Arg-Trp-Cys]-NH2]" class_assignment="no (0)"
binder="Ac-R[hCys][dA][dF]RWC-NH2 (disulfide 2-7; SMILES CC(=O)N[C@@H](CCCNC(=N)N)C(=O)N[C@H]1CCSSC[C@@H](C(N)=O)NC(=O)[C@H](Cc2c[nH]c3ccccc23)NC(=O)[C@H](CCCNC(=N)N)NC(=O)[C@@H](Cc2ccccc2)NC(=O)[C@@H](C)NC1=O) [Ac-Arg-cyclo[hCys-D-Ala-D-Phe-Arg-Trp-Cys]-NH2]" class_assignment="no (0)"

Request: Item Ac-RC[dA]W[dF]RWC-NH2 (disulfide 2-8; SMILES CC(=O)N[C@@H](CCCNC(=N)N)C(=O)N[C@H]1CSSC[C@@H](C(N)=O)NC(=O)[C@H](Cc2c[nH]c3ccccc23)NC(=O)[C@H](CCCNC(=N)N)NC(=O)[C@@H](Cc2ccccc2)NC(=O)[C@H](Cc2c[nH]c3ccccc23)NC(=O)[C@@H](C)NC1=O) [Ac-Arg-cyclo[Cys-D-Ala-Trp-D-Phe-Arg-Trp-Cys]-NH2] : Ratios of EC50 values MC 5/4 (MC5R against MC4R) beneath 200 ratio, strictly?
Response: yes (1)

Request: Item Ac-RC[dA]P[dPhe(4-F)]RWC-NH2 (disulfide 2-8; SMILES CC(=O)N[C@@H](CCCNC(=N)N)C(=O)N[C@H]1CSSC[C@@H](C(N)=O)NC(=O)[C@H](Cc2c[nH]c3ccccc23)NC(=O)[C@H](CCCNC(=N)N)NC(=O)[C@@H](Cc2ccc(F)cc2)NC(=O)[C@@H]2CCCN2C(=O)[C@@H](C)NC1=O) [Ac-Arg-cyclo[Cys-D-Ala-Pro-D-Phe(p-F)-Arg-Trp-Cys]-NH2] : Ratios of EC50 values MC 5/4 (MC5R against MC4R) beneath 200 ratio, strictly?
Response: yes (1)

Request: Item Ac-R[hCys][dA][dF]RW[Pen]-NH2 (disulfide 2-7; SMILES CC(=O)N[C@@H](CCCNC(=N)N)C(=O)N[C@H]1CCSSC(C)(C)[C@@H](C(N)=O)NC(=O)[C@H](Cc2c[nH]c3ccccc23)NC(=O)[C@H](CCCNC(=N)N)NC(=O)[C@@H](Cc2ccccc2)NC(=O)[C@@H](C)NC1=O) [Ac-Arg-cyclo[hCys-D-Ala-D-Phe-Arg-Trp-Pen]-NH2] : Ratios of EC50 values MC 5/4 (MC5R against MC4R) beneath 200 ratio, strictly?
Response: yes (1)

Request: Item Ac-RC[dA]Q[dF]RWC-NH2 (disulfide 2-8; SMILES CC(=O)N[C@@H](CCCNC(=N)N)C(=O)N[C@H]1CSSC[C@@H](C(N)=O)NC(=O)[C@H](Cc2c[nH]c3ccccc23)NC(=O)[C@H](CCCNC(=N)N)NC(=O)[C@@H](Cc2ccccc2)NC(=O)[C@H](CCC(N)=O)NC(=O)[C@@H](C)NC1=O) [Ac-Arg-cyclo[Cys-D-Ala-Gln-D-Phe-Arg-Trp-Cys]-NH2] : Ratios of EC50 values MC 5/4 (MC5R against MC4R) beneath 200 ratio, strictly?
Response: yes (1)
